Data provenance: patent US20030068675

Target: T1, ZFP SBS#1436 (synthetic, UniProt P08047)
T1 chain: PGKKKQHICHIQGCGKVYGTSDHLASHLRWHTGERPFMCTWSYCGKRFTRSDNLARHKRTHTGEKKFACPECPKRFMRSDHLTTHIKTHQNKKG
Assay: EMSA
Settings: tags: MBP fusion
RECORDED_METRIC: pKd
Answers are plain numbers, as −log10 of the molar value.

Requested read-out: pKd. Entry: TGGGAGTGT (dsDNA) DNA 1: TGGGAGTGT DNA 2: ACACTCCCA
10.59
